- SYSTEM_TESTED: Mitogen-activated protein kinase 1 (Homo sapiens, UniProt P28482)
- Sequence (P28482 whole entry): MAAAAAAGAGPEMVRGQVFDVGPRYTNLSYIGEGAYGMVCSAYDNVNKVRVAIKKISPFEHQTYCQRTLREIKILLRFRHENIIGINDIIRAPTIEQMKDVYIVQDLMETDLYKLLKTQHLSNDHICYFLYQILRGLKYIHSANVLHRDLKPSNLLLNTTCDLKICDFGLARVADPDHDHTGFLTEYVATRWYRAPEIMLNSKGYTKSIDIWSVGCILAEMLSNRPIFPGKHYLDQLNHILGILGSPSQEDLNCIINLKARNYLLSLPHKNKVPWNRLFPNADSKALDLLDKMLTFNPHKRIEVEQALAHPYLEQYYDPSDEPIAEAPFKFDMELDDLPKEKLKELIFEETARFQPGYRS
- RUN_DESCRIPTION: Assay 1
pKi: −log10 of the molar value.
Values of pKi greater than or equal to 8 map to criterion met; values below map to criterion not met.

# input Reported pKi at or above 8? Cc1cnc(N[C@H]2CCOC2)nc1-c1cc(C(=O)N[C@H](CO)c2ccccc2)n(C)c1 [erk000704]
# output criterion met

# input Field entry: CCOP(=O)(OCC)OC[C@H](CC)Nc1ncc(C)c(-c2c[nH]c(C(=O)N[C@H](COP(=O)(OCC)OCC)c3cccc(Cl)c3)c2)n1 [erk000676]
# output criterion not met

# input Ok, now CC[C@@H](COC(=O)CCC(=O)N1CCOCC1)Nc1ncc(C)c(-c2c[nH]c(C(=O)N[C@H](COC(=O)CCC(=O)N3CCOCC3)c3cccc(Cl)c3)c2)n1 [erk000718]
# output criterion not met

# input Proceed to Cc1ccc(Nc2ncc(C)c(-c3c[nH]c(C(=O)N[C@H](CO)c4ccccc4)c3)n2)cc1Br [erk000563]
# output criterion met

# input Then this compound: Cc1onc(-c2ccccc2)c1-c1ccn(C(=O)NC(C)C)n1 [erk000088]
# output criterion not met

---

So I've got a bunch of molecules here, and I need their Ki values.
- SYSTEM_TESTED: Mitogen-activated protein kinase 1 (Homo sapiens, UniProt P28482)
- RUN_DESCRIPTION: Assay 1
Answer in nM, number only, no unit symbol.

# input Suppose we examine the molecule O=C(NCc1ccc2c(c1)OCO2)c1cc(-c2ccnc(Nc3ccccc3)n2)c[nH]1 ; what Ki value has been reported?
# output 269

# input Entry CC[C@@H](CO)Nc1ncc(F)c(-c2c[nH]c(C(=O)N[C@H](CO)c3cccc(Cl)c3)c2)n1 please
# output 3

# input Next molecule: Cc1cnc(NOCC2CC2)nc1-c1c[nH]c(C(=O)N[C@H](CO)c2ccccc2)c1
# output 26

# input Same for Cc1cccc([C@@H](CO)NC(=O)c2cc(-c3nc(NC(C)C)ncc3C)c[nH]2)c1
# output 1

# input Next: CC(C)Nc1ncc(Cl)c(-c2c[nH]c(C(=O)N(C)[C@H](CO)c3ccccc3)c2)n1
# output 6

# input One more molecule: Cc1cnc(NCC2CCOCC2)nc1-c1c[nH]c(C(=O)N[C@H](CO)c2ccccc2)c1
# output 17

# input CC[C@@H](COC(C)=O)Nc1ncc(C)c(-c2c[nH]c(C(=O)N[C@H](COC(C)=O)c3cccc(Cl)c3)c2)n1 ?
# output 229

# input Try this molecule next: CCNc1ncc(C)c(-c2c[nH]c(C(=O)N[C@H](CO)c3ccccc3)c2)n1
# output 3

---

So I've got a bunch of compounds here, and I need their pKi values.
- SYSTEM_TESTED: Mitogen-activated protein kinase 1 (Homo sapiens)
- RUN_DESCRIPTION: Assay 1
Scale for pKi: -log10 of concentration given in mol/L; no unit attached.

# input Bench note: what pKi did CC[C@@H](CO)Nc1ncc(C)c(-c2c[nH]c(C(=O)N[C@H](CO)c3cccc(Cl)c3)c2)n1 show?
# output 8.70

# input What would you report for CCNc1ncc(C)c(-c2c[nH]c(C(=O)NCc3ccc(F)c(F)c3)c2)n1 ?
# output 6.62

# input Same lookup for Cc1cnc(Nc2cccc(C(F)(F)F)c2)nc1-c1c[nH]c(C(=O)N[C@H](CO)c2ccccc2)c1 , please.
# output 8.70

# input Queued: CCONc1ncc(C)c(-c2cc(C(=O)N[C@H](CO)c3cccc(Cl)c3)n(C)c2)n1
# output 7.89

---

- SYSTEM_TESTED: Mitogen-activated protein kinase 1 (Homo sapiens)
- RUN_DESCRIPTION: Assay 1
I'd be grateful if you could share measured Ki for these entries.
Note: unit nM is implicit; provide only the numeric part.

# input I'd like to know its Ki. The molecule in question is Cc1cnc(N[C@@H](C)C(C)C)nc1-c1c[nH]c(C(=O)N[C@H](CO)c2cccc(Cl)c2)c1
# output 6

# input // repeat for Cc1cnc(N)nc1-c1c[nH]c(C(=O)NCc2ccccc2F)c1 and report
# output 4790

# input Follow-up item: Cc1cnc(Nc2cccc(Br)c2C)nc1-c1c[nH]c(C(=O)N[C@H](CO)c2ccccc2)c1
# output 27

# input Now try Cc1cnc(NC2CCOCC2)nc1-c1c[nH]c(C(=O)N[C@H](CO)c2cccc(Cl)c2)c1 .
# output 8

# input Another molecule to look at: Cc1cnc(NC(C)(CO)CO)nc1-c1c[nH]c(C(=O)N[C@H](CO)c2ccccc2)c1
# output 6

# input Next: CCONc1ncc(C)c(-c2c[nH]c(C(=O)N[C@H](CO)c3cccc(C)c3)c2)n1
# output 3

# input Follow-up entry: Cc1cnc(NCC(F)(F)F)nc1-c1c[nH]c(C(=O)N[C@H](CO)c2ccccc2)c1
# output 5

# input Repeat for the following molecule: Cc1cnc(NC2(CO)CCCC2)nc1-c1c[nH]c(C(=O)N[C@H](CO)c2ccccc2)c1
# output 51

# input Okay, and Cc1cc(N)ccc1Nc1ncc(C)c(-c2c[nH]c(C(=O)N[C@H](CO)c3cccc(Cl)c3)c2)n1 ?
# output 3

# input Another molecule: Cc1cnc(NCC(F)(F)F)nc1-c1cc(C(=O)N[C@H](CO)c2cccc(Cl)c2)n(C)c1
# output 6

# input Field entry: Cc1cnc(N[C@@H]2CCC[C@H](C)[C@@H]2C)nc1-c1c[nH]c(C(=O)N[C@H](CO)c2cccc(Cl)c2)c1
# output 13

# input What about Cc1cnc(N)nc1-c1c[nH]c(C(=O)NCc2cccc(C(F)(F)F)c2)c1 ?
# output 562

# input And then CC(=O)OC[C@@H](NC(=O)c1cc(-c2nc(Nc3ccccc3)ncc2C)c[nH]1)c1ccccc1 , what is it?
# output 38

# input Next: CNc1ncc(C)c(-c2c[nH]c(C(=O)NCc3cccc(C(F)(F)F)c3)c2)n1
# output 468

# input Item: Cc1cnc(NC2CCCCC2)nc1-c1c[nH]c(C(=O)N[C@H](CO)c2ccccc2)c1
# output 2

# input And CCN(CC)CCOc1ccc(Nc2ncc3cc(-c4c(Cl)cccc4Cl)c(=O)n(C)c3n2)cc1 ?
# output 174

---

- SYSTEM_TESTED: Mitogen-activated protein kinase 1 (Homo sapiens, UniProt P28482)
- RUN_DESCRIPTION: Assay 1
ENDPOINT_NAME: log10 of Ki (log10 of the value in nM)
Scale: decimal log of Ki, Ki in nM.

# input Which log10 of Ki is reported for this compound? Cc1cnc(N[C@H](C)CO)nc1-c1c[nH]c(C(=O)N[C@H](CO)c2ccccc2)c1 [erk000462]
# output 1.15

# input And what about the compound CCNc1ncc(C)c(-c2c[nH]c(C(=O)N[C@@H](CO)c3ccccc3)c2)n1 [erk000048] ?
# output 4.11

# input Next record, please: CCn1cc(-c2nc(NCC(F)(F)F)ncc2C)cc1C(=O)N[C@H](CO)c1cccc(Cl)c1 [erk000680]
# output 1.53

# input One more compound: CCNc1ncc(C)c(-c2c[nH]c(C(=O)NCc3ccccc3)c2)n1 [erk000047]
# output 1.95

# input Try the compound CC1CCN(c2nc(Nc3cc(C4CC4)n[nH]3)c3ccccc3n2)CC1 [erk000284]
# output 1.81

# input And then CC[C@@H](COC(=O)[C@@H](NC)C(C)C)Nc1ncc(C)c(-c2c[nH]c(C(=O)N[C@H](COC(=O)[C@@H](NC)C(C)C)c3cccc(Cl)c3)c2)n1 [erk000715] , what is it?
# output 3.28

# input Another compound: Cc1cnc(NC2CCCCC2)nc1-c1c[nH]c(C(=O)NCc2ccc(F)c(F)c2)c1 [erk000310]
# output 1.85

# input Another compound to look at: Cc1cnc(NC2CC2)nc1-c1c[nH]c(C(=O)N[C@H](CO)c2cccc(F)c2)c1 [erk000542]
# output 1.04

# input Subsequent entry: CNc1ncc(C)c(-c2c[nH]c(C(=O)N[C@H](CO)c3ccccc3)c2)n1 [erk000046]
# output 1.77

# input Try Cc1cnc(Nc2cccc(O)c2C)nc1-c1c[nH]c(C(=O)N[C@H](CO)c2ccccc2)c1 [erk000527] next.
# output 0.48

# input Now consider CC[C@@H](CO)Nc1ncc(C)c(-c2cc(C(=O)N[C@H](CO)c3cccc(Cl)c3)n(CC)c2)n1 [erk000678] and answer again.
# output 0.60

# input Would you kindly repeat that for Cc1cnc(N[C@H](C)C(C)C)nc1-c1c[nH]c(C(=O)N[C@H](CO)c2cccc(Cl)c2)c1 [erk000607] ?
# output 0.00

# input One more compound: Cc1cnc(NC[C@H](C)O)nc1-c1c[nH]c(C(=O)N[C@H](CO)c2ccccc2)c1 [erk000464]
# output 1.57

# input Same for Cc1ccc(Nc2ncc(C)c(-c3c[nH]c(C(=O)N[C@H](CO)c4ccccc4)c3)n2)cc1C [erk000441]
# output 0.30

# input # repeat for CC[C@@H](CO)Nc1ncc(C)c(-c2cc(C(=O)N[C@H](CO)c3cccc(Cl)c3)n(COC)c2)n1 [erk000694]
# output 0.70

# input Same question for Cc1cccc([C@@H](CO)NC(=O)c2cc(-c3nc(Nc4ccccc4N(C)C)ncc3C)c[nH]2)c1 [erk000532] please.
# output 1.70

Just for reference, BindingDB's records for aid1799744 is where these values come from.
